assay: Dissociation constant, pKa by NMR titration assay; type: physicochemical
READOUT NAME: pKa

QUERY: Need pKa, item CC(=O)N(O)CCCP(=O)(O)O [FR-900098]
RESULT: 7.35

QUERY: GET /values?readout=pKa&item= CC(=O)N(O)CCC(Cl)P(=O)(O)O.N.N (racemic)
RESULT: ≤ 6

QUERY: Fill in: pKa of CC(=O)N(O)CCC(F)P(=O)(O)O.N.N (racemic) is ___
RESULT: ≤ 6

###

Measured pIC50, listed per entry.
tested on: Plasmodium falciparum; assay: Antiplasmodial activity against Plasmodium falciparum K1 by micro dilution assay; format: functional, organism-based
By convention, pIC50 is the negative base-10 log of a molar concentration.

Some solved entries appear below for comparison.
compound=O=CN(O)CCCP(=O)(O)O readout_name=pIC50 numeric_readout=5.76
compound=CC(=O)N(O)CCCP(=O)(O)O readout_name=pIC50 numeric_readout=6.38
compound="CC(=O)N(O)CCC(F)P(=O)(O)O.N.N (racemic)" readout_name=pIC50 numeric_readout=6.54

QUERY: Requested read-out pIC50, target or system Plasmodium falciparum, entry O=CN(O)CCC(c1ccc(Cl)c(Cl)c1)P(=O)(O)O (stereo unspecified)
RESULT: 6.80

QUERY: Record lookup: for Plasmodium falciparum, what pIC50 belongs to CN(O)C(=O)CCC(F)P(=O)(O)O.N.N (racemic) ?
RESULT: 6.51

QUERY: Find pIC50 (Plasmodium falciparum) for the entry CC(=O)N(O)CCC(Cl)P(=O)(O)O.N.N (racemic)
RESULT: 6.52

Data provenance: ChEMBL document CHEMBL1155443
